Cited source for all entries: ChEMBL document CHEMBL3217480

# Test system: PC-3
# Protocol Details: Inhibition of human PC3 cell proliferation
# Format: functional, cell-based
Observable: IC50 (nM)
Quick note: give the figure in nM, leave out the unit.

Recorded IC50 (compound "COc1cccc(-c2cc(C(=O)Nc3cc4cc(OC)c(OC(C)=O)c(C)c4oc3=O)ccc2OC)c1" ): 970
